Numbers sourced from PubChem BioAssay AID488969.

Field: z-score. Provide a value for each of the compounds that follow.
measurement_target: Metabotropic glutamate receptor 8 (Rattus norvegicus)
test_name: mGluR8 Gi/Go-coupled signaling modulation – cell-based, rat, thallium flux, HTS, primary screen (AID 488969)
test_settings: HEK293 rat mGluR8, GIRK thallium flux, FluoZin2; at 10 µM; stronger effect = higher value; submaximal glutamate (EC20) added with thallium
Over roughly 110,000 compounds, “z-score” has its median near -0.1; the highest 2% begin near 2. This is one part of a sample in which the highest values are shown more often than they occur.
Answers are plain numbers.

Field: example entries. Status: answers known.
smiles_notation=C=CCNC(=S)NNC(=O)c1cccc(Br)c1 recorded_value=-0.0521
smiles_notation=O=C1NC(=S)SC1=C1CCCCCC1 recorded_value=17.1

Hey, can you go through the list below and give me z-score for every item?
1. Cc1cc([N+](=O)[O-])cc(C)c1OCC(=O)N/N=C/c1ccc(OC(=O)c2ccccc2)cc1
2. Cc1cc([N+](=O)[O-])cc(C)c1OCC(=O)N/N=C/c1ccc(OC(=O)c2ccccc2Br)cc1
3. Cc1ccc(C(=O)NNC(=S)Nc2cccc3ccccc23)s1
4. O=C1NC(=O)C(=C2CCCCCC2)S1
5. O=C(NNC(=S)Nc1ccccc1)c1cccc(Br)c1

OUTPUT:
1: -0.0495; 2: 2.41; 3: 1.65; 4: 0.367; 5: 3.98

Hey, can you go through the list below and give me z-score for every item?
1. O=C(NNC(=S)Nc1cccc2ccccc12)c1cccc(Br)c1
2. O=C(O)CCC(=O)NNC(=O)c1cccc(Br)c1
3. CCN(C(=O)COC(=O)c1cc(NS(=O)(=O)c2ccc(Cl)c([N+](=O)[O-])c2)ccc1O)C1CCCCC1
4. O=C1NC(=S)SC1=C1CCCC1

OUTPUT:
13.9
-0.13
2
1.36

---

measurement_target: Metabotropic glutamate receptor 8 (Rattus norvegicus)
test_name: mGluR8 Gi/Go-coupled signaling modulation – cell-based, rat, thallium flux, HTS, primary screen (AID 488969)
test_settings: HEK293 rat mGluR8, GIRK (G protein-gated inwardly rectifying potassium channel) thallium flux, FluoZin2; at 10 µM; stronger effect = higher value; submaximal glutamate (EC20) added with thallium
The full ranking holds about 110,000 compounds; the median of “z-score” is about -0.1, and the highest 2% start at about 2. Only a selection was taken, and the highest values are over-represented in it overall.
// not fulfilled strictly below -0.3 in z-score; fulfilled otherwise

Before answering, review these 4 worked examples.
compound=O=C(O)Cn1ccnc1 assigned_class="not fulfilled"
compound="CC12CC(c3ccccc3O1)N(C(=O)c1ccco1)C(=S)N2c1ccc(F)cc1 (configuration not stated)" assigned_class="not fulfilled"
compound=CCCCn1c(SCC(=O)OCC)nc2c1c(=O)[nH]c(=O)n2C assigned_class="not fulfilled"
compound=Cc1ccc(-c2nnc3c4ccccc4c(C)nn23)cc1S(=O)(=O)N1CCN(C)CC1 assigned_class="not fulfilled"

INPUT: Would you say O=C(CCn1cccc1)Nc1cc(F)ccc1F shows z-score at minimum -0.3?
OUTPUT: fulfilled

INPUT: Would you say O=C(CC(O)(C(F)(F)F)C(F)(F)F)Nc1ccc(Cl)c(Cl)c1 shows z-score at minimum -0.3?
OUTPUT: fulfilled

INPUT: Would you say COC(=O)C1=CNC=C(C(=O)OC)C1c1ccccc1Cl shows z-score at minimum -0.3?
OUTPUT: not fulfilled
